Source of measurements: patent US20100069378A1

- MEASURED_ON: 5HT6 human recombinant receptor (Homo sapiens, UniProt P50406)
- Construct: purchased Receptor Biology; host or cells: HEK-293 cell membranes (recombinant expression)
- Sequence (P50406 whole entry): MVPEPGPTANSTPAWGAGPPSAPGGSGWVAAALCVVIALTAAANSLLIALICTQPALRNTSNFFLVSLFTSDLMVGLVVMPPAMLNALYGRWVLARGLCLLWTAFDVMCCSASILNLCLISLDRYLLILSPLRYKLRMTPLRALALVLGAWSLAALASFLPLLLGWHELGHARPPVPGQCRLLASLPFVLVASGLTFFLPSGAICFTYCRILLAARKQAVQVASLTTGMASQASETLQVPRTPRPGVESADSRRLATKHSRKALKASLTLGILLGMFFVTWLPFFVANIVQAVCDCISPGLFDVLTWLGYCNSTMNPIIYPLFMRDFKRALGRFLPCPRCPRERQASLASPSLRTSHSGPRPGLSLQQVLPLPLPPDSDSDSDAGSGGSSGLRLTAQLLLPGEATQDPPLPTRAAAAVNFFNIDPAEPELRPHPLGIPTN
- ASSAY_NAME: Binding Test to 5-HT6 Receptors ([3H]-LSD displacement, HEK-293 membranes)
- SETUP_CONDITIONS: compound at 10^−7 M, [3H]-LSD 2.7 nM, 60 min, 37° C.
Counter-ions that a name gives are not always drawn.
READOUT_LABEL: inhibition at 0.1 µM (%)
One number for each entry, in %.

Some solved cases for reference:
compound="O=S(=O)(Nc1ccc2c(c1)C(=NNC1=NCCN1)CC2)c1c(Cl)nc2sccn12 [Compound 24, hydrochloride]" scale_unit=% observed_measurement=87.7
compound="N=C(N)N/N=C1/CCc2ccc(NS(=O)(=O)c3ccc4ccccc4c3)cc21 [Compound 8, hydrochloride]" scale_unit=% observed_measurement=82.2
compound="CN(c1ccc2c(c1)/C(=N\\NC(=N)N)CC2)S(=O)(=O)c1c(Cl)nc2sccn12 [Compound 22, hydrochloride]" scale_unit=% observed_measurement=89.2
compound="CN1CCN(C2CC(C)(C)c3ccc(NS(=O)(=O)c4c(Cl)nc5sccn45)cc32)CC1 (stereo not shown) [Compound 15]" scale_unit=% observed_measurement=30.3
compound="N=C(N)NN=C1CCc2cc(NS(=O)(=O)c3c(Cl)nc4sccn34)ccc21 [Compound 21, hydrochloride]" scale_unit=% observed_measurement=86.9

Look at each compound and report its inhibition at 0.1 µM.
1. CN1CCN(C2CCc3ccc(NS(=O)(=O)c4ccc5ccccc5c4)cc32)CC1 (stereo not shown) [Compound 2]
2. CN1CCOc2cc(S(=O)(=O)Nc3ccc4c(c3)C(=NNC3=NCCN3)CC4)ccc21 [Compound 26, hydrochloride]

Result:
89.1
84.6
